Target: T1, MSR1-mediated Dil-AcLDL uptake in HEK293.Myc.hMSR1 cells (Homo sapiens, UniProt P21757)
T1 construct: expressed in transfected cells; host or cells: HEK293 (lentiviral transduction, hygromycin selection)
T1 sequence (P21757 1-451): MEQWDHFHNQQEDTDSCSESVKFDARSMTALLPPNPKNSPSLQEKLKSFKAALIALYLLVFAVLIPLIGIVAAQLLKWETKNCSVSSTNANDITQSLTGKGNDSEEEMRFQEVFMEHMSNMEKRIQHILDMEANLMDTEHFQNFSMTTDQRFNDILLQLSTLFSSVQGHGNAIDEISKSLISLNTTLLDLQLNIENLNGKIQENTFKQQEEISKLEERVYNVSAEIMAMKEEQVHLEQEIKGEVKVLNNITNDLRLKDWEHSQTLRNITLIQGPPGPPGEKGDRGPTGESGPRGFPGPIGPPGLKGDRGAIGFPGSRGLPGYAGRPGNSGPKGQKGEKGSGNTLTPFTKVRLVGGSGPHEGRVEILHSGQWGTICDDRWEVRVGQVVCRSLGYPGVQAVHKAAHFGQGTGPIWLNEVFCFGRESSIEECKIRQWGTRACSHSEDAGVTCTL
Test: Ligand uptake assay, Dil-AcLDL
Type: cell-based
Conditions: maximum inhibition, 10 μg/mL Dil-AcLDL
Protocol: A bioassay was generated to assess the ability of the exemplary anti-MSR1 antibodies to regulate the uptake of certain MSR1 ligands. Generation of MSR1-expressing cell lines for assay. […] Ligand uptake assay. […] Results were analyzed using nonlinear regression (4-parameter logistics) with the Prism 7 program to obtain EC50 and IC50 values. The percentage of inhibition was calculated with the Relative Fluorescent Unit (RFU) values by using the following equation: […]
Quantity name: Dil-Acetylated LDL % Inhibition

molecule="H1H27734P-N297Q: one of \"Twelve anti-MSR1 antibodies\"; \"made with an N297Q single point mutation in human Fcγ portion\" (antibody, V domains shown) VH: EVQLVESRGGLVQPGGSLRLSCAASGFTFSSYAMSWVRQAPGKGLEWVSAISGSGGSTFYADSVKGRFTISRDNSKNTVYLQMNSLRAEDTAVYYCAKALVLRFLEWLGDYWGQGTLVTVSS VL: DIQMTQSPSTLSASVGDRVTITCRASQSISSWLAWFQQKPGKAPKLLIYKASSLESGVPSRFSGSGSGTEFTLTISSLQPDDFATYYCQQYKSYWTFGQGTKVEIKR" quantity_name="Dil-Acetylated LDL % Inhibition" reported_value="no inhibition"
molecule="H1H27739P-N297Q: anti-MSR1 antibody \"made with an N297Q single point mutation in human Fcγ portion\" (antibody, V domains shown) VH: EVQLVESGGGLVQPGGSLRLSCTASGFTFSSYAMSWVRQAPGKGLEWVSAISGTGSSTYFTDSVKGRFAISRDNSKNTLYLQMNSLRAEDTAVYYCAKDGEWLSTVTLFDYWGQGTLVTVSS VL: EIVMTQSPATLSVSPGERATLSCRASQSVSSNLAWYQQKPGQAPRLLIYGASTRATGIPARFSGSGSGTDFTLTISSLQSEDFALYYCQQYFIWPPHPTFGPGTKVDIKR" quantity_name="Dil-Acetylated LDL % Inhibition" reported_value="no inhibition"
molecule="H2aM21229N: one of \"Twelve anti-MSR1 antibodies\"; \"an “H2aM” antibody has a mouse IgG2a Fc\" (antibody, V domains shown) VH: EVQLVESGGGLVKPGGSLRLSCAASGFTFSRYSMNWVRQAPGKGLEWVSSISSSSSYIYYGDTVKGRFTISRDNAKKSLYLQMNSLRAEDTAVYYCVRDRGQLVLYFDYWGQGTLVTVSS VL: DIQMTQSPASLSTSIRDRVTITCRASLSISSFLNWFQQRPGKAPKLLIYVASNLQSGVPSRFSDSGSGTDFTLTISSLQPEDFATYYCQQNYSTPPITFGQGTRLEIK" quantity_name="Dil-Acetylated LDL % Inhibition" reported_value="no inhibition"
